# measurement_target: CYP1A1 (Homo sapiens, UniProt P04798)
# Construct: expressed in transfected cells
# Sequence (P04798 whole entry): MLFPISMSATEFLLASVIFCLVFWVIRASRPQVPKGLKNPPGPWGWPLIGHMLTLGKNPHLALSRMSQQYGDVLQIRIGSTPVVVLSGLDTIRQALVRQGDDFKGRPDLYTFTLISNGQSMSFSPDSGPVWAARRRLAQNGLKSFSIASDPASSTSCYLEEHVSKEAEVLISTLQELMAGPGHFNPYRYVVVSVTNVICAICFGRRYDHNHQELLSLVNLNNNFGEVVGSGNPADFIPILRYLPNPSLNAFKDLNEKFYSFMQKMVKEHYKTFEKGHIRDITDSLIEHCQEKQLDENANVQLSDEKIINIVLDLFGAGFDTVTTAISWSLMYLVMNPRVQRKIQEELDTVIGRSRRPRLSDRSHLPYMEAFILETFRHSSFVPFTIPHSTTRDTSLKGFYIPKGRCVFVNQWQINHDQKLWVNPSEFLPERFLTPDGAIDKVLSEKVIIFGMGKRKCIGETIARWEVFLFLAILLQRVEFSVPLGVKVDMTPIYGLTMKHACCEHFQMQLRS
# protocol_notes: EROD assay in CYP1A1 counter-screen cell line
# Assay type: cell-based
# test_parameters: Table 2; EROD assay; read-out: IC50 CYP1A1
quantity_measured: IC50 (µM)

molecule	measurement_target	unit_text	IC50
COc1ccc(-c2csc(-c3ccc(O)cc3)n2)c(OC)c1	CYP1A1 (Homo sapiens, UniProt P04798)	µM	1.96
N#CCOc1ccc(-c2nc(-c3cccnc3)cs2)cc1	CYP1A1 (Homo sapiens, UniProt P04798)	µM	2.61
COc1ccc(-c2csc(-c3cccnc3)n2)c(OC)c1	CYP1A1 (Homo sapiens, UniProt P04798)	µM	0.151
c1ccc(-c2nc(-c3cccnc3)cs2)nc1	CYP1A1 (Homo sapiens, UniProt P04798)	µM	0.085
Oc1ccc(-c2csc(-c3ccccn3)n2)cc1	CYP1A1 (Homo sapiens, UniProt P04798)	µM	1.32
COc1cc(OC)cc(-c2nc(-c3cccc(C(F)(F)F)c3)cs2)c1	CYP1A1 (Homo sapiens, UniProt P04798)	µM	2.78
Fc1ccc(-c2csc(-c3ccccn3)n2)cc1C(F)(F)F	CYP1A1 (Homo sapiens, UniProt P04798)	µM	0.24
Oc1ccc(-c2csc(-c3cccnc3)n2)cc1	CYP1A1 (Homo sapiens, UniProt P04798)	µM	1.41
N#Cc1ccc(-c2csc(-c3ccc(O)cc3)n2)cc1	CYP1A1 (Homo sapiens, UniProt P04798)	µM	16.4

1. COc1ccc(-c2nc(-c3ccc(F)c(C(F)(F)F)c3)cs2)c(OC)c1
2. Oc1ccc(-c2nc(-c3ccc(F)c(C(F)(F)F)c3)cs2)cc1
3. C#CCOc1ccc(-c2nc(-c3ccc(C#N)cc3)cs2)cc1
Exercise: Sort entries by IC50 from minimum to maximum value. Provide the ranking by listing each label in its place in the requested order.
Solution: 3, 1, 2

====

# Tested on: HEK
# protocol_notes: Cytotoxicity, resazurin, 72 hours after compound addition
# Assay type: cell-based
# test_parameters: Table 3; HEK; read-out: HEK cytotoxicity
pIC50: −log10 of the molar value.
Each item that follows carries a reported pIC50.

compound	result
COc1cc(/C=C/c2ccc(OC)cc2OC)cc(OC)c1 [TMS, reference compound]	< 5.00
COc1ccc(/C=C/c2ccncn2)c(OC)c1	< 5.00

Next compound, pIC50 to be filled in.
Summary: O=c1cc(-c2ccccc2)oc2c1ccc1ccccc12 [ANF, reference compound] , HEK, pIC50 = < 5.00

====

# measurement_target: UniProt:P05177
# Sequence (P05177 2-516): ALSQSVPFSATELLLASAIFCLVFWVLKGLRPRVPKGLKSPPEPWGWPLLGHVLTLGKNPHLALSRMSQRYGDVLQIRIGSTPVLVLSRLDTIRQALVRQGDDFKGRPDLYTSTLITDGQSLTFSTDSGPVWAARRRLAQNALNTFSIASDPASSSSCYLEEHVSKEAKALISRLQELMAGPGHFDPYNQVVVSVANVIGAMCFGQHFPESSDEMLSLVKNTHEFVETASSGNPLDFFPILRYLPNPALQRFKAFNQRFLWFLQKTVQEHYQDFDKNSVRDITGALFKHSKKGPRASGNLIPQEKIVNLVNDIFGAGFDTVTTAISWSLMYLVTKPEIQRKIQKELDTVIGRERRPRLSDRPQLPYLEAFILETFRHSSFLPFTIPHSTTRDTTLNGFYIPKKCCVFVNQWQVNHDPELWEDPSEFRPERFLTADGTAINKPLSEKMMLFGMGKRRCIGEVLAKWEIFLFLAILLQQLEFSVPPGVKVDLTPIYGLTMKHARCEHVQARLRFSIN
# protocol_notes: EROD counterscreen in pooled human liver microsomes
# Type: biochemical
# Set-up: IC50 pHLM; EROD assay
# test_parameters: human, microsomes, Table 2; EROD assay
quantity_measured: IC50 (µM)

1. Oc1ccc(-c2csc(-c3ccccn3)n2)cc1
2. c1ccc(-c2nc(-c3cccnc3)cs2)nc1
Exercise: Input pair: 1 , 2 . Output: entry with lower IC50. Selection: enter the item's label.
Solution: 1

1. COc1ccc(-c2csc(-c3ccc(O)cc3)n2)c(OC)c1
2. COc1ccc(-c2csc(-c3cccnc3)n2)c(OC)c1
Exercise: Sorting by IC50 in descending order, would 1 or 2 appear first? Selection: enter the item's label.
Solution: 1
(1: 5.55 µM, 2: 0.0001 µM)
